system name: CT-L activity of purified 20S proteasome (Homo sapiens, UniProt P20618+P28074)
procedure details: in vitro CT-L activity of purified 20S proteasome
Format: biochemical
assay conditions: read-out: IC50, in vitro CT-L
outcome measure: IC50 (nM)

// below: answered molecules
Cc1ccc(OCC(=O)N(Cc2nc(-c3ccccn3)no2)C(C)C)cc1 [11w]; 3740
CC(C)N(Cc1nc(-c2ccccc2)no1)C(=O)COc1ccccc1 [11j]; 6220
Cc1ccc(OCC(=O)N(Cc2nc(-c3ccc(C)cc3)no2)CC(C)C)cc1 [12a]; 2370

[A] CC(C)N(Cc1nc(-c2ccccc2)no1)C(=O)CCc1ccc(C(F)(F)F)cc1 [SO2-027]
[B] Cc1ccc(-c2noc(CN(C(=O)COc3ccccc3)C(C)C)n2)cc1 [11k]
[C] CC(C)N(Cc1nc(-c2ccc(Cl)cc2)no1)C(=O)COc1ccc(Cl)cc1 [11g]
Rank descending by IC50. Your task in answering is to list the labels in the requested order. A, B, C
